Tested on: AS120
Protocol text: qHTS profiling for inhibitors of Plasmodium falciparum proliferation (AID 504749); note: nearly all actives have a fitted effect of over 60% in size
Cond: P. falciparum in erythrocytes, SYBR Green DNA, 72 h; series mostly up to 28.7 µM
Results filed as inconclusive are left out. Calls of active or inactive are those of the source. Calls come from the whole dose curve; as a rule, active = well fitted inhibition curve with a large enough effect; inconclusive = small, poorly fitted or top-dose-only effect; inactive = flat fitted curve, though single readings scatter.
Labels: T for active, F for inactive

Compound: O=C1CC[C@H](C(=O)N[C@@H]2C[C@H]2c2ccccc2)N1
Discrete label: F
//
Compound: CC1OC(OC2C(O)CC(OC3C(O)CC(OC4CCC5(C)C(CCC6C5CCC5(C)C(C7=CC(=O)OC7)CCC65O)C4)OC3C)OC2C)CC(O)C1O (configuration not stated)
Discrete label: F
//
Compound: CN(C)CC[C@@](O)(c1ccccc1)c1ccccc1Cl
Discrete label: T
//
Compound: CCN(CC)CC(=O)Nc1c(C)cc(C)cc1C
Discrete label: F
//
Compound: CCOC(=O)C(CCc1ccccc1)NC(C)C(=O)N1Cc2cc(OC)c(OC)cc2CC1C(=O)O (configuration not stated)
Discrete label: T
//
Compound: CCC(=O)OC1C(N(C)C)CC(C)O[C@H]1O[C@H]1[C@H](C)[C@@H](O[C@H]2CC(OC)[C@@H](O)C(C)O2)[C@H](C)C(=O)O[C@@H](CC)[C@](C)(O)[C@@H](O)[C@H](C)C(=O)[C@@H](C)C[C@]1(C)O (some centres not stated)
Discrete label: F
//
Compound: C[n+]1c2cc(N)ccc2cc2ccc(N)cc21
Discrete label: T
//
Compound: C[C@@H]1CCN(C(=O)[C@H](CCCNC(=N)N)NS(=O)(=O)c2cccc3c2NC[C@H](C)C3)[C@@H](C(=O)O)C1
Discrete label: F
//
Compound: CC(=O)C1(O)Cc2c(O)c3c(c(O)c2C(OC2CC(N)C(O)C(C)O2)C1)C(=O)c1c(O)cccc1C3=O (configuration not stated)
Discrete label: T
//
Compound: Nc1nc(F)nc2c1ncn2[C@@H]1O[C@H](CO)[C@@H](O)[C@H]1O
Discrete label: F
//
Compound: C=C1[C@@H]2CC[C@H](C2)C1(C)C
Discrete label: F
//
Compound: C#C[C@]1(O)CC[C@H]2[C@H]3[C@H](CC[C@@]21C)C1=C(CC(=O)CC1)C[C@@H]3C
Discrete label: F
//
Compound: CO[C@H]1OC2O[C@@]3(C)CC[C@H]4[C@H](C)CC[C@@H]([C@H]1C)[C@@]24OO3 (some centres not stated)
Discrete label: T
//
Compound: O=C1C(I)=CC(=C(c2cc(I)c(O)c(I)c2)c2ccccc2C(=O)O)C=C1I
Discrete label: F
//
Compound: Nc1ncn(C2C[C@H](O)[C@@H](CO)O2)c(=O)n1 (some centres not stated)
Discrete label: F
//
Compound: C/C(=C(/CCO)SS/C(CCO)=C(\C)N(C=O)Cc1cnc(C)nc1N)N(C=O)Cc1cnc(C)nc1N
Discrete label: F
//
Compound: CCCCC/C(C=O)=C/c1ccccc1
Discrete label: F
//
Compound: OCC1O[C@H](O[C@H]2C(O)C(O)C(O)O[C@@H]2CO)C(O)C(O)C1O (some centres not stated)
Discrete label: F
//
Compound: CC1(C(=O)O)CCC2(C)CCC3(C)C(=CC(=O)C4C5(C)CCC(O)C(C)(C)C5CCC43C)C2C1 (configuration not stated)
Discrete label: F
//
Compound: NCCCCC(N)C(=O)O (configuration not stated)
Discrete label: F
//
Compound: CO/N=C(/C(=O)N[C@@H]1C(=O)N2C(C(=O)O)=C(CSc3cnns3)CS[C@H]12)c1csc(N)n1
Discrete label: F
//
Compound: O=C(O)CC(O)CC(O)/C=C/c1c(C2CC2)nc2ccccc2c1-c1ccc(F)cc1 (configuration not stated)
Discrete label: F
//
Compound: C=C[C@@]1(C)C[C@H](OC(=O)CSC(C)(C)CNC(=O)[C@@H](N)C(C)C)[C@@]2(C)C(C)CC[C@@]3(CCC(=O)[C@@H]32)[C@H](C)[C@H]1O (some centres not stated)
Discrete label: T
//
Compound: CC1(Cn2ccnn2)[C@H](C(=O)O)N2C(=O)C[C@H]2S1(=O)=O (some centres not stated)
Discrete label: F
//
Compound: CCCCC(=O)O[C@]1(C(=O)CO)CCC2C3CCC4=CC(=O)CCC4(C)C3C(O)CC21C (some centres not stated)
Discrete label: F
//
Compound: Cc1cn([C@H]2CC(F)[C@@H](CO)O2)c(=O)[nH]c1=O (some centres not stated)
Discrete label: F
//
Compound: OCC(CO)NC1C[C@](O)(CO)[C@@H](O)[C@H](O)[C@H]1O (some centres not stated)
Discrete label: F
//
Compound: CC(=O)NC1[C@H](O)C[C@@](O)(C(=O)O)O[C@H]1[C@H](O)[C@H](O)CO (some centres not stated)
Discrete label: F
//
Compound: CCCC(=O)O[C@]1(C(=O)COC(C)=O)CC[C@H]2C3C[C@H](F)C4=CC(=O)C=CC4(C)[C@@]3(F)[C@@H](O)CC21C (some centres not stated)
Discrete label: F
//
Compound: CC1CN(c2c(F)c(N)c3c(=O)c(C(=O)O)cn(C4CC4)c3c2F)CC(C)N1 (configuration not stated)
Discrete label: F
//
Compound: C=C1CC2C3C=C(C)C4=CC(=O)CCC4(C)C3CCC2(C)[C@@]1(OC(C)=O)C(C)=O (some centres not stated)
Discrete label: F
//
Compound: Cc1onc(-c2c(F)cccc2Cl)c1C(=O)NC1C(=O)N2C1SC(C)(C)C2C(=O)O (configuration not stated)
Discrete label: F
//
Compound: O=C1[C@@H]2C[C@@H]3C[C@H]1C[C@@](O)(C3)C2
Discrete label: F
//
Compound: CC(=O)CC(c1ccccc1)C1C(=O)Oc2ccccc2C1=O (configuration not stated)
Discrete label: F
//
Compound: CC(=O)O[C@]1(C(C)=O)CCC2C3CCC4=CC(=O)CCC4(C)C3(F)C(O)CC21C (some centres not stated)
Discrete label: F
//
Compound: C[C@@H]1C(SC2Cn3cnc[n+]3C2)=C(C(=O)[O-])N2C(=O)[C@H]([C@@H](C)O)[C@@H]12 (some centres not stated)
Discrete label: F
//
Compound: CC(=O)N1CC(O)CC1C(=O)O (configuration not stated)
Discrete label: F
